Record form. Attribute: IC50. Fill in for each entry.
Target: GPR6 (Homo sapiens, UniProt P46095)
Construct: expressed in transfected cells; host or cells: CHO cells
Sequence (P46095 whole entry): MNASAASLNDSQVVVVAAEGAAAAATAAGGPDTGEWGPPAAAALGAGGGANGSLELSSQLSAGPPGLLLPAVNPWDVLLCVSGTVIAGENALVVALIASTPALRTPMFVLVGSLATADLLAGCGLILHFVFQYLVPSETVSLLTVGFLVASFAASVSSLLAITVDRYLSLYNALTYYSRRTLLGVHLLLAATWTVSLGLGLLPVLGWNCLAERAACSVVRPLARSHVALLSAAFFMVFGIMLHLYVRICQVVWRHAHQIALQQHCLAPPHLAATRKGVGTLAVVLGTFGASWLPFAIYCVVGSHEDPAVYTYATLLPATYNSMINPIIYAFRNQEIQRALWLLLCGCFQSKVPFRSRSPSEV
Assay: GPR6 antagonist functional cAMP assay (LANCE Ultra cAMP TR-FRET, CHO cells stably expressing GPR6)
Type: cell-based
Settings: CHO cells stably expressing GPR6, cAMP assay (Example 24)
Protocol: Example 56. GPR6 and GPR3 Antagonist Functional cAMP Assay CHO cells stably expressing GPR6 or GPR3 receptors were dissociated from cell culture flasks and incubated for 2 h at 37° C. in a 10 cm dish in a humidified incubator. […] To measure cAMP levels, LANCE® Ultra cAMP assay (Perkin Elmer), a homogeneous time-resolved fluorescence resonance energy transfer (TR-FRET) immunoassay was used following manufacturer's recommendations. […] FRET values were reported as readings obtained at 665 nm. […]

Below are worked cases with known answers.
COc1ncccc1-c1nc2c(nc1N1CCC(Oc3ccc(F)cc3F)CC1)CCN(C(C)=O)C2; 1000 to 30000 nM
CC(=O)N1CCc2nc(N3CCN(C(=O)c4ccc(F)cc4)CC3)c(-c3cnn(C)c3)nc2C1; 1000 to 30000 nM
CC(=O)N1CCc2nc(N3CCC(C(=O)N4CCOCC4)C3)c(-c3cnn(C)c3)nc2C1 (centres unmarked); ≥ 30000 nM
CC(=O)N1CCc2nc(N3CCC(Oc4ccc(F)cc4F)CC3)c(-c3cccc(Cl)n3)nc2C1; 100 to 1000 nM
COC1CN(c2cc3nc(N4CCC(Oc5ccc(F)cc5F)CC4)c(-c4cnn(C)c4)nc3cn2)C1; 1000 to 30000 nM
OCCN1CCc2nc(N3CCC(Oc4ccc(F)cc4F)CC3)c(-c3cnn(C4CCCCO4)c3)nc2C1 (centres unmarked); 1000 to 30000 nM

Look up IC50 for the entries below, preserving their order.
1. Cn1cc(-c2nc3c(nc2N2CCC(Oc4ccc(F)cc4F)CC2)CC2COCC(=O)N2C3)cn1 (centres unmarked)
2. CC(=O)N1CCc2nc(N3CCC(Oc4ccc(F)cc4F)CC3)c(C3=CC(O)CCC3)nc2C1 (centres unmarked)
3. Cn1cc(-c2nc3cnc(CCO)cc3nc2N2CCC(Oc3ccc(F)cc3F)CC2)cn1
4. CC(=O)N1CCc2nc(N3CCC(Oc4ccc(F)cc4F)CC3)c(-c3ccn(C)c(=O)c3)nc2C1

*A*
["100 to 1000 nM", "1000 to 30000 nM", "100 to 1000 nM", "1000 to 30000 nM"]

Look up IC50 for the entries below, preserving their order.
1. COc1cccnc1-c1nc2c(nc1N1CCC(Oc3ccc(F)cc3F)CC1)CCN(C(C)=O)C2
2. CCn1cnc(-c2nc3c(nc2N2CCC(Oc4ccc(F)cc4F)CC2)CCN(C(C)=O)C3)c1
3. Fc1ccc(-c2ncc3n2CCN(c2nc4ccncc4nc2-c2cn[nH]c2)C3)c(F)c1
4. Cn1cc(-c2nc3cnc(C[C@@H](O)CO)cc3nc2N2CCC(Oc3ccc(F)cc3F)CC2)cn1 (single isomer, unassigned)

*A*
≥ 30000 nM
1000 to 30000 nM
≥ 30000 nM
100 to 1000 nM
